# Target Desc: human orexin 2 receptor (Homo sapiens (Human))
# Sequence (O43614 whole entry): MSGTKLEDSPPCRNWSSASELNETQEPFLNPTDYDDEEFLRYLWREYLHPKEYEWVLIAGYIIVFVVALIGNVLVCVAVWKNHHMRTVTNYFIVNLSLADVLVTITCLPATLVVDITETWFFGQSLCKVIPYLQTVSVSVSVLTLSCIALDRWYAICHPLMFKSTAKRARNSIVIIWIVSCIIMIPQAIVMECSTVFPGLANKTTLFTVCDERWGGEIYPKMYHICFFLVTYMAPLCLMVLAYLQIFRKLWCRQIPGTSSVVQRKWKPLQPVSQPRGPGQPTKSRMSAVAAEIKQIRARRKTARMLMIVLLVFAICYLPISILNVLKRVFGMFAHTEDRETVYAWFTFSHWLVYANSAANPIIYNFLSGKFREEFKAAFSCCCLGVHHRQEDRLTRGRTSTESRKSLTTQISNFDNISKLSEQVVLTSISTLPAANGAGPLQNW
# Method: Human orexin 2 receptor radioligand binding (competitive, [3H]-EMPA, HEK293 cell preparations)
# Run Parameters: human orexin 2 receptor, [3H]-EMPA competition binding; read-out: hOX2 Ki (nm)
Below, each entry is listed alongside its reported Ki.

For orientation, consider the following solved cases.
[
  {
    "Molecule": "Cc1cc(C)nc(NC2CC3CCC2N3C(=O)c2nc(C)ccc2-c2ncccn2)n1 (racemic) [Example 200]",
    "Result": "552 nM"
  },
  {
    "Molecule": "Cc1ccc(OCC2CC3CCC2N3C(=O)c2ccc(C)nc2-n2ccnn2)nc1 (racemic) [Example 136]",
    "Result": "1200 nM"
  },
  {
    "Molecule": "O=C(c1cccc(F)c1-n1nccn1)N1[C@@H]2CC[C@H]1[C@H](Nc1cnc(C(F)(F)F)cn1)C2 [Example 252]",
    "Result": "1230 nM"
  }
]

Consider the record given below.
## Input GET /values?readout=Ki&item= Cc1ccc(C(=O)N2[C@@H]3CC[C@H]2[C@H](Nc2cnc(C(F)(F)F)cn2)C3)c(-n2ccnn2)n1 [Example 248]
## Output > 10000 nM

====

Below, each entry is listed alongside its reported pKi.
# Target Desc: rat orexin 1 receptor (Rattus norvegicus)
# Method: Rat orexin 1 receptor radioligand binding (competitive, [3H]-SB674042, HEK293 cell preparations)
# Run Parameters: rat orexin 1 receptor, [3H]-SB674042 competition binding; read-out: rOX1 Ki (nm)
// pKi here means minus log10 of the molar concentration (mol/L)

For orientation, consider the following solved cases.
[
  {
    "Compound": "O=C(c1cc(F)ccc1-n1nccn1)N1C2CCC1C(CNc1cnc3ccccc3n1)C2 (racemic)",
    "Numeric Readout": 6.43
  },
  {
    "Compound": "Cc1ccc(N2CCOCC2)c(C(=O)N2[C@@H]3CC[C@H]2[C@H](COc2ccccn2)C3)n1 (racemic)",
    "Numeric Readout": 5.38
  },
  {
    "Compound": "Cc1ccn2ccnc2c1C(=O)N1C2CCC1C(COc1ccccn1)C2 (racemic)",
    "Numeric Readout": 5.96
  },
  {
    "Compound": "Cc1ccc(-c2ncco2)c(C(=O)N2C3CCC2C(COc2ccc(F)cn2)C3)n1 (racemic)",
    "Numeric Readout": 7.60
  },
  {
    "Compound": "Cc1cnn(-c2ccc(C)nc2C(=O)N2C3CCC2C(COc2ncc(F)cn2)C3)c1 (racemic)",
    "Numeric Readout": 5.77
  }
]

## Input GET /values?readout=pKi&item= CCOc1ccc2cccnc2c1C(=O)N1C2CCC1C(COc1ccccn1)C2 (racemic)
## Output 7.74

## Input Also need O=C(c1cccc(F)c1-c1cccnn1)N1[C@@H]2CC[C@H]1[C@H](Nc1cnc(C(F)(F)F)cn1)C2 , thanks.
## Output 6.97

## Input Also need COc1ccc(NC2CC3CCC2N3C(=O)c2ccccc2-n2nccn2)nc1 (racemic) , thanks.
## Output 5.55

## Input Also need Cc1ccc(-c2ncco2)c(C(=O)N2C3CCC2C(COc2ncc(F)cn2)C3)n1 (racemic) , thanks.
## Output 6.02

## Input Also need Cc1ccc(C(=O)N2C3CCC2C(COc2ccc(F)cn2)C3)c(-c2ncccn2)c1 (racemic) , thanks.
## Output 6.93

## Input Also need Cc1ccc(N2CCCC2)c(C(=O)N2C3CCC2C(COc2ccccn2)C3)n1 (racemic) , thanks.
## Output 7.46
